Measured values drawn from paper PMC10657444 for this set.

# Test system: A. baumannii 1318
# Assay type: cell-based, Acinetobacter baumannii
Residues, ends and D or L forms follow the SMILES beside them. *: point of attachment. Octanoyl = CCCCCCCC(=O)*
assay metric: MIC Gram- A. b 1318

compound	MIC Gram- A. b 1318
CC[C@H](C)[C@H](NC(=O)[C@H](CCCNC(=N)N)NC(=O)[C@H](CO)NC(=O)[C@H](CC(C)C)NC(=O)[C@@H](N)Cc1ccccc1)C(=O)N[C@@H](Cc1ccccc1)C(N)=O [SHfΔ2F] (H-FLSRIF-NH2; N-terminus assumed)	> 100 µM
CCCCCCCC(=O)N[C@@H](Cc1ccccc1)C(=O)N[C@@H](CC(C)C)C(=O)N[C@@H](CO)C(=O)N[C@@H](CCCNC(=N)N)C(=O)N[C@H](C(=O)N[C@@H](Cc1ccccc1)C(N)=O)[C@@H](C)CC [OA-SHf] (Octanoyl-FLSRIF-NH2)	> 100 µM

Consider the additional compound presented here.
Looking up CC[C@H](C)[C@H](NC(=O)[C@H](CCCNC(=N)N)NC(=O)[C@H](CO)NC(=O)[C@H](CC(C)C)NC(=O)[C@H](Cc1ccccc1)NC(=O)[C@H](Cc1ccccc1)NC(=O)[C@H](Cc1ccc(O)cc1)NC(=O)[C@@H](N)Cc1ccc(O)cc1)C(=O)N[C@@H](Cc1ccccc1)C(N)=O [Y-SHf(Y^1)] (H-YYFFLSRIF-NH2; N-terminus assumed) , I found its MIC Gram- A. b 1318 recorded as > 100 µM
